Recorded activity at 1 µM for the following compounds
# tested.target: dopamine receptors (Rattus norvegicus, UniProt P61169)
# Construct: on hypophysis sinaptosomal rat membranes; from tissue; host or cells: rat hypophysis (pituitary), synaptosomal membranes
# Sequence (P61169 whole entry): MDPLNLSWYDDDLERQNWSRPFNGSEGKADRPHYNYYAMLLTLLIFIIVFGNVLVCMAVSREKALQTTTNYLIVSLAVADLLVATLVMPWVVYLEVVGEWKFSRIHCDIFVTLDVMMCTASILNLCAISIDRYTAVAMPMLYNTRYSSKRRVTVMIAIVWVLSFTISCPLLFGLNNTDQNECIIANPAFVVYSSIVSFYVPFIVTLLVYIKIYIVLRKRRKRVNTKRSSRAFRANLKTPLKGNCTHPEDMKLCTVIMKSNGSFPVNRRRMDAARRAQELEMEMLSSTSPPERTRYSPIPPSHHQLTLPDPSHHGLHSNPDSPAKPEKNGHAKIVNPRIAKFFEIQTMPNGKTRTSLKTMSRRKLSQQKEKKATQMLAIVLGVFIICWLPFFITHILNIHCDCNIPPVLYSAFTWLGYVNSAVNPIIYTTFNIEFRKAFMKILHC
# method.description: Binding of (^3H)-spiroperidole to hypophysis membranes of rat
# settings: read-out: Product bound % ((^3H) spiroperidole binding to hypophysis membranes), (^3H) spiroperidole 2.10^-9 M (2 nM); test substance 10^-6 M
observable: activity at 1 µM (%)

compound: CN1C[C@H](C(=O)O)C=C2c3cccc4[nH]cc(c34)C[C@H]21
tested.target: dopamine receptors (Rattus norvegicus, UniProt P61169)
assay.result: 100
//
compound: CCCCCCCCCCCCCCCC(O)C(CO)NC(=O)C1CC2c3cccc4[nH]cc(c34)CC2N(C)C1 (stereo not drawn) [Product 15, Dihydrolysergyldihydrosphingosine amide]
tested.target: dopamine receptors (Rattus norvegicus, UniProt P61169)
assay.result: 90
//
compound: CCCCCCCCCCCCCC=CC(O)C(CO)NC(=O)[C@@H]1C=C2c3cccc4[nH]cc(c34)C[C@H]2N(C)C1 (stereo partly drawn) [Product 2.2, Lysergylsphingosine-amide]
tested.target: dopamine receptors (Rattus norvegicus, UniProt P61169)
assay.result: 85

---

Recorded activity at 0.1 µM for the following compounds
# tested.target: dopamine receptors (Rattus norvegicus)
# Construct: on hypophysis sinaptosomal rat membranes; from tissue; host or cells: rat hypophysis (pituitary), synaptosomal membranes
# method.description: Binding of (^3H)-spiroperidole to hypophysis membranes of rat
# settings: read-out: Product bound % ((^3H) spiroperidole binding to hypophysis membranes), (^3H) spiroperidole 2.10^-9 M (2 nM); test substance 10^-7 M

compound: CCCCCCCCCCCCC/C=C/[C@@H](O)[C@@H](N)CO
unit.of.measure: %
activity at 0.1 µM: 100
--
compound: CN1C[C@H](C(=O)O)C=C2c3cccc4[nH]cc(c34)C[C@H]21
unit.of.measure: %
activity at 0.1 µM: 100
--
compound: CCCCCCCCCCCCCC=CC(O)C(CO)NC(=O)C1CC2c3cccc4[nH]cc(c34)CC2N(C)C1 (stereo not shown) [Product 3, Dihydrolysergylsphingosine amide]
unit.of.measure: %
activity at 0.1 µM: 100
--
compound: CCCCCCCCCCCCCCCC(O)C(CO)NC(=O)C1CC2c3cccc4[nH]cc(c34)CC2N(C)C1 (stereo not shown) [Product 15, Dihydrolysergyldihydrosphingosine amide]
unit.of.measure: %
activity at 0.1 µM: 100
--
compound: CCCCCCCCCCCCCC=CC(O)C(CO)NC(=O)[C@@H]1C=C2c3cccc4[nH]cc(c34)C[C@H]2N(C)C1 (stereo partly shown) [Product 2.2, Lysergylsphingosine-amide]
unit.of.measure: %
activity at 0.1 µM: 100
--
compound: CN1C[C@H](C(=O)O)CC2c3cccc4[nH]cc(c34)C[C@H]21 (stereo partly shown) [dihydrolysergic acid]
unit.of.measure: %
activity at 0.1 µM: 100
--
compound: CCCCCCCCCCCCCC=CC(O)C(COC1OC(CO)C(O)C(O)C1O)NC(=O)C1CC2c3cccc4[nH]cc(c34)CC2N(C)C1 (stereo not shown) [Product 16, Dihydrolysergylpsychosine amide]
unit.of.measure: %
activity at 0.1 µM: 100

---

# System: prolactin
# method.description: Hypoprolactinemic effect in rats, serum prolactin by RIA, at the circadian peak at 4 p.m.
# settings: 0.5 mg/kg; circadian peak at 4 p.m.
Lab note: compare Prolactin with 40 ng/mL, writing Y if less and N if equal or more.

compound: CN1C[C@H](C(=O)O)C=C2c3cccc4[nH]cc(c34)C[C@H]21 [lysergic acid]
qualitative.label: N
--
compound: CCCCCCCCCCCCCC=CC(O)C(CO)NC(=O)C1CC2c3cccc4[nH]cc(c34)CC2N(C)C1 (stereo not shown) [Product 3, Dihydrolysergylsphingosine amide]
qualitative.label: Y
--
compound: CCCCCCCCCCCCCC=CC(O)C(CO)NC(=O)[C@@H]1C=C2c3cccc4[nH]cc(c34)C[C@H]2N(C)C1 (stereo partly shown) [Product 2.2, Lysergylsphingosine-amide]
qualitative.label: N
--
compound: CCCCCCCCCCCCCCCC(O)C(N)CO (stereo not shown) [dihydrosphingosine]
qualitative.label: N
--
compound: CCCCCCCCCCCCCC=CC(O)C(N)COC1OC(CO)C(O)C(O)C1O (stereo not shown) [psychosine, Psychosine or galactosylsphingosine]
qualitative.label: N
